# protocolDetails: Human HepG2 cell viability assay in 384 well format
# Type: toxicity, cell-based
# Parameters: dose 125 nL, time 70.5 hour; concentration not given beside the values
# experimentalSetup: HepG2 cells, read-out: Inhibition
experimentalEndpoint: cytotoxicity at 70.5 h

molecule	experimentalEndpoint	reportedResult
CCCc1n[nH]c(C2CN(Cc3nnc(C4CC4)o3)CCO2)n1 (centres undefined)	cytotoxicity at 70.5 h	8.7%
COC(=O)NCC1CCC2(CCNCC2)O1 (centres undefined)	cytotoxicity at 70.5 h	28.3%
CC(NC(=O)CCCc1ccc(Cl)cc1)c1n[nH]c(=O)[nH]1 (centres undefined)	cytotoxicity at 70.5 h	-0.585%
O=C(c1cccnc1)N1CCCC(c2cc(C(F)F)n3ncnc3n2)C1 (centres undefined)	cytotoxicity at 70.5 h	-13.8%
CCCC(=O)NC1CCCN(Cc2cccs2)C1 (centres undefined)	cytotoxicity at 70.5 h	-18.1%
c1cnnc(N2CCCC(NCc3cccc4c3OCO4)C2)c1 (centres undefined)	cytotoxicity at 70.5 h	1.39%
CC1CN(C(=O)NCc2cccc(C#N)c2)CCN1CC(F)(F)F (centres undefined)	cytotoxicity at 70.5 h	-7.28%
Cc1nn(Cn2ccc(C(=O)N3CCCC3)n2)c(C)c1Cl	cytotoxicity at 70.5 h	-9.33%
CC(C)Cn1c2c(ccc1=O)CC(N)CC2 (centres undefined)	cytotoxicity at 70.5 h	-3.16%
O=C(c1ccsc1)N1CCO[C@@H]2CN(Cc3ccco3)CC[C@@H]2C1	cytotoxicity at 70.5 h	0.973%
Cc1ccc(NC(=O)C2CSCN2C(=O)c2cnsn2)c(C)c1 (centres undefined)	cytotoxicity at 70.5 h	-6.91%
CN1N=C(C(=O)Nc2cc(F)ccc2OCC2CCCO2)CCC1=O (centres undefined)	cytotoxicity at 70.5 h	-20.2%
O=C(NCc1nncn1C1CC1)C1(c2ccc(F)cc2)CCCC1	cytotoxicity at 70.5 h	14.3%
CCOCc1nnc2n1CCN(Cc1c(C)noc1C)CC2	cytotoxicity at 70.5 h	16.5%
CC(C)c1cc(NCC2(Cn3cccn3)CC2)n2nccc2n1	cytotoxicity at 70.5 h	5.08%
Cc1ncc(CN2CCOC(CNc3cccnn3)C2)s1 (centres undefined)	cytotoxicity at 70.5 h	2.68%
COc1ccccc1CCNC(=O)NC(C)COCC(F)(F)F (centres undefined)	cytotoxicity at 70.5 h	-5.34%
CCN(CC(=O)Nc1c(C)n[nH]c1C)CC(O)c1ccc(C)cc1 (centres undefined)	cytotoxicity at 70.5 h	13.8%
N#Cc1cc(F)ccc1Cn1cnc(C2CCC2)cc1=O	cytotoxicity at 70.5 h	1.8%
Cc1cc(CN2CCOCS2(=O)=O)ccc1F	cytotoxicity at 70.5 h	-7.79%
CCC(C)N1CCc2c(C(=O)N3CCOCC3)n[nH]c2C1 (centres undefined)	cytotoxicity at 70.5 h	-3.05%
Cc1cc2n(n1)CCN(c1nc(N)nc3c1CCNCC3)C2	cytotoxicity at 70.5 h	-13.6%
COc1ccccc1CC(=O)N1CCCC(c2cc(C)[nH]n2)C1 (centres undefined)	cytotoxicity at 70.5 h	3.02%
CC(C)NC(=O)[C@@H]1CC[C@@H]2[C@@H](CCN2Cc2ccc3ccccc3n2)O1	cytotoxicity at 70.5 h	-8.11%
O=C(CCN1CCOCC1)NC(Cc1ccsc1)c1nccs1 (centres undefined)	cytotoxicity at 70.5 h	-4.65%
CC(C)(C)Oc1ccc(NCC(=O)NCc2ccco2)cc1	cytotoxicity at 70.5 h	-18.5%
Fc1ccc(-c2cnc(CN3CCOC(Cn4cccn4)C3)o2)cc1 (centres undefined)	cytotoxicity at 70.5 h	-5.15%
CC1(C)CCC(C(=O)O)c2ccccc21 (centres undefined)	cytotoxicity at 70.5 h	-8.46%
Cc1ccc2nc(CNCCCOc3ccccc3)cc(O)c2c1	cytotoxicity at 70.5 h	-2.02%
c1cc(CN2CCOCC3(CCNCC3)C2)ccn1	cytotoxicity at 70.5 h	23%
O=C(c1cccnc1O)N1CCC(COc2ccccc2)CC1	cytotoxicity at 70.5 h	-14.5%
Cc1nc2cc(F)ccc2cc1C(=O)N1CCN(CC(C)O)CC1 (centres undefined)	cytotoxicity at 70.5 h	-9.69%
COC(=O)c1cc(OC)c(OC)cc1NCc1c(C)noc1C	cytotoxicity at 70.5 h	-2.42%
COc1ccccc1OCCCN1C(=O)CCNC1=O	cytotoxicity at 70.5 h	32%
CNC(=O)c1cn2cc(-c3cccc(Cl)c3)n(CC3CC3)c(=O)c2n1	cytotoxicity at 70.5 h	-8.05%
Cc1nc(-c2ccsc2)ccc1C(=O)NCCCN1CCOCC1	cytotoxicity at 70.5 h	-5.66%
CC(C)(C)c1ncc(C(=O)NCCNC(=O)c2cccs2)s1	cytotoxicity at 70.5 h	12.5%
Cc1ncc(C(=O)NCCNC(=O)Cc2cccc(F)c2)s1	cytotoxicity at 70.5 h	-6.72%
CCO[C@@H]1CC[C@H]2[C@H]1OCCN2C(=O)C1CCOCC1	cytotoxicity at 70.5 h	-2.08%
